Provenance of the data: patent US20180127503A1

biological target: T1, human ROR2 expressed on the cell surface (human, UniProt Q01974 34-943); test: flow cytometry, HEP G2 cells (HCC); design: unit not given here
T1 construct: Endogenous ROR2 of human tumour cell lines; also called cell surface ROR2; ROR2 on tumour cell lines
T1 sequence (Q01974 34-943 limits assumed): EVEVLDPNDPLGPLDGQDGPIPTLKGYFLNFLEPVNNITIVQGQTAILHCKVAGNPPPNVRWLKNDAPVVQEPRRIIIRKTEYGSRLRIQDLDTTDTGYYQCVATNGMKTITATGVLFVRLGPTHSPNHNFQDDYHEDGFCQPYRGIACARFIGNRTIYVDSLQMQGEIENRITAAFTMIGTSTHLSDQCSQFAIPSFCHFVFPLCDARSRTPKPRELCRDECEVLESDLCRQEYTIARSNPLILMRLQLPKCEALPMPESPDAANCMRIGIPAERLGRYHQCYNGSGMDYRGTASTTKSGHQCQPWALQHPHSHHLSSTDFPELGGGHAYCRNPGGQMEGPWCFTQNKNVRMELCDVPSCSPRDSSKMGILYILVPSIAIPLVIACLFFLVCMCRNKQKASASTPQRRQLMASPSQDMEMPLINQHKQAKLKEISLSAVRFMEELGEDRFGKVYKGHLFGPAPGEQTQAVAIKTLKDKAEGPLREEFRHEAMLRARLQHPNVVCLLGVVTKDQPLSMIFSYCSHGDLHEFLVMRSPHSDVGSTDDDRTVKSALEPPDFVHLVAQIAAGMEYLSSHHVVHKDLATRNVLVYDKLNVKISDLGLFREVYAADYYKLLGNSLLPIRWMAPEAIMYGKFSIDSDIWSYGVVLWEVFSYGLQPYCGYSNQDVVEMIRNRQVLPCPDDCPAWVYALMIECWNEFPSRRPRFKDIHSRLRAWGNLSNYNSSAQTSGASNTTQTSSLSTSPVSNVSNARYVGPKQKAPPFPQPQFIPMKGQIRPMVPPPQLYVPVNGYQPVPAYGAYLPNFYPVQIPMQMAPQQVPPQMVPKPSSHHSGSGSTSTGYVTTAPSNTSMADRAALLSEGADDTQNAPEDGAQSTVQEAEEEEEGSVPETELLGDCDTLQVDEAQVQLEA
Tick fulfilled if binding intensity is 40 or greater. Tick not fulfilled if binding intensity is less than 40.

Observe how each entry below is paired with its result.
ROR2-27 full length human IgG1 antibody (antibody, V domains shown, also called clone #27; clone #027 IgG1) VH: QVQLVESGAEVKKPGESLKISCKASGYSFSNYWIGWVRQMPGKGLEWMGIIYPDDSDTRYSPSFQGQVTISADKSISTAYLQWYSLKVADTAKYYCVRPRGAFDIWGQGTTVTVSS VL: QSVLTQPPSVSGAPGQRVTISCTGSSSNIGAGHAVHWYQQLPGTAPKLLIYDNANRPSGVPDRFSGSQSGTSASLAITGLQTGDEADYYCGTWDDSPSAYVFGTGTKVTVLG ... not fulfilled
ROR2-241 full length human IgG1 antibody (antibody, V domains shown) VH: EVQLVQSGAEVKKPGASVKVSCKASGYTFTNYYIHWVRQAPGQGLEWMGIINPTSGRTRYAQRFQGRVTMTRDTSTNTVYMDLSSLRSEDTAMYYCARSGYYWGVNGDQWGQGTLVTVSS VL: SYELTQPLSVSVALGQTARITCGGNNIGSKNVHWYQQKPGQAPVLVIYRDSNRPSGIPERFSGSNSGNTATLTISRAQAGDEADYYCQVWDSSIVVFGGGTKLTVLG ... not fulfilled
ROR2-90 full length human IgG1 antibody (antibody, V domains shown, also called clone #90; antibody #90) VH: EVQLVESGPGLVKPSQTLSLTCTVSGGSISSGGYYWSWIRQHPGKGLEWIGYIYYSGSTYYNPSLKSRVTISVDTSKNQFSLKLSSVTAADTAMYYCARGGLYWTYSQDVWGQGTLVTVSS VL: QPVLTQPPSASGTPGQRVTISCSGSSSNIGSDYVSWYQQLPGTAPKLLIYRNDQRPSGVPDRFSGSKSGTSASLAISGLRSEDEADYYCVAWDDSLSGYVFGSGTKVTVLG ... fulfilled
ROR2-240 full length human IgG1 antibody (antibody, V domains shown, also called clone #240 IgG1) VH: QITLKESGPELVKPTQTLTLTCTFSGFSLSTSGMSVSWIRQPPGKALEWLARIDWDDDKYYSTSLKTRLTISKDTSKNQVVLTMTNTDPVDTATYYCARGFYLAYGSYDSWGQGTLVTVSS VL: QSALTQPASVSGSPGQSITISCTGTSGDVGGYNYVSWYQHHPGKAPKLIIYDVNKRPSGFSDRFSGSKSGNTASLTISGLQAEDEADYYCSSYTSTSTVFGGGTKLTVLG ... not fulfilled

Here is the next item to consider.
Lookup: Exam item: decide whether the reported binding intensity for ROR2-23 full length human IgG1 antibody (antibody, V domains shown, The light chain of clone 023 is labelled kappa; also called clone #23; clone #023 IgG1) VH: EVQLVQSGAEVKKPGESLKISCQGSGYRFSKYWIGWVRQMPGKGLEWMGIIYPGDSDTRYSPSFQGQVTISADKSISTAYLQWSSLKASDTAMYYCARSFSSFIYDYWGQGTLVTVSS VL: ETTLTQSPGTLSVSPGERATLSCRASQSVSSNLAWYQQKRGQAPRLLIYGASTRATGIPVRFSGSGSGTEFTLTISRLEPEDFAVYYCQQYGRSPLTFGGGTKVDIKR is at least 40.
Found: not fulfilled
